# experimentalProtocol: qHTS assay to identify small molecule agonists of the sonic hedgehog signaling (Shh) pathway - cell viability counter screen (AID 1259366); further: nearly all actives have a fitted effect of over 50% in size
# setupConditions: NIH/3T3 Gli1-Luc viability, CellTiter-Fluor, 24 h; series mostly up to 92.4 µM
Inconclusive results are not listed. Activity calls are given as the source filed them. The call rests on the fitted dose curve; in most records, active means well fitted cell-killing curve with a large enough effect in the repeat runs; inconclusive means weak or mixed curves, or effect the other way; inactive means flat fitted curve, though single readings scatter.
Thanks in advance; please answer with one of these: active, inactive

Record excerpt, results attached:
CCCC(=O)OCC: inactive
CC(C)(C)c1cc(CO)cc(C(C)(C)C)c1O: inactive
CC(=O)Nc1ccc(/C=N/NC(N)=S)cc1: inactive

Read the next record carefully.
What did this assay record as the result for CC/C(=C\C(=N/O)C(N)=O)C(C)[N+](=O)[O-] (stereo not given) ?
inactive
